runDescription: Oral bioavailability in rat (Sprague-Dawley) (dose 2 mg/kg)
Format: ADME, organism-based
testContext: in vivo
bioavailability values for the molecules below.

Check out these entries, answers already filled in.
[[record]]
smilesstr = "COc1cccc(OC)c1-c1ccc(C[C@H](NC(=O)[C@@]2(C)CCCO2)C(=O)O)cc1"
recordedmeasurement = "42%"

[[record]]
smilesstr = "COc1ccccc1-c1ccc(C[C@@H](NC(=O)[C@@]2(C)CCCO2)C(=O)O)cc1"
recordedmeasurement = "57%"


Field request: bioavailability | item: C[C@]1(C(=O)N[C@@H](Cc2ccc(-c3ccccc3OC3CC3)cc2)C(=O)O)CCCO1
76%

Field request: bioavailability | item: C[C@]1(C(=O)N[C@@H](Cc2ccc(-n3ccccc3=O)cc2)C(=O)O)CCCO1
27%

----------
pIC50 values for the compounds below.
testTarget: Integrin alpha-4/beta-1 (Homo sapiens, UniProt P05556+P13612)
Sequence (P05556 whole entry): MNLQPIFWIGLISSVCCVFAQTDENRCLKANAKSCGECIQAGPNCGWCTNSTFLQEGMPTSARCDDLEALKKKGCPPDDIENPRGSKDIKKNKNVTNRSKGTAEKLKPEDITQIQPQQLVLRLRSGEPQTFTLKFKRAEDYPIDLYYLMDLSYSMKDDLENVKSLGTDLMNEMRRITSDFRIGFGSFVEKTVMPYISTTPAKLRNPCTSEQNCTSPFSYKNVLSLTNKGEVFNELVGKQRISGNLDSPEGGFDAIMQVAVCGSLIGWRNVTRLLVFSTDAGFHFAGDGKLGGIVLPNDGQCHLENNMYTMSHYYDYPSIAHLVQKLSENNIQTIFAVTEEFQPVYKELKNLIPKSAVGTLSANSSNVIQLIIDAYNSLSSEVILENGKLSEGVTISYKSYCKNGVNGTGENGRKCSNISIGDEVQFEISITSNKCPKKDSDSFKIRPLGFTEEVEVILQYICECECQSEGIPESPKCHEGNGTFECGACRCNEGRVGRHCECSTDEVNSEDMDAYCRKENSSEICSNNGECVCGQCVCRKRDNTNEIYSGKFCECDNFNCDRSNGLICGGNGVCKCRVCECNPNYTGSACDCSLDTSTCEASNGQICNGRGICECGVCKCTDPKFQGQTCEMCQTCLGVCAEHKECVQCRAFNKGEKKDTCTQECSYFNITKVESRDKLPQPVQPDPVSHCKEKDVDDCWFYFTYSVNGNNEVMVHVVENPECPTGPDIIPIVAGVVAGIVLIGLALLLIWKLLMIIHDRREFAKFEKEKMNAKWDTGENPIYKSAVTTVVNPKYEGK
Sequence (P13612 whole entry): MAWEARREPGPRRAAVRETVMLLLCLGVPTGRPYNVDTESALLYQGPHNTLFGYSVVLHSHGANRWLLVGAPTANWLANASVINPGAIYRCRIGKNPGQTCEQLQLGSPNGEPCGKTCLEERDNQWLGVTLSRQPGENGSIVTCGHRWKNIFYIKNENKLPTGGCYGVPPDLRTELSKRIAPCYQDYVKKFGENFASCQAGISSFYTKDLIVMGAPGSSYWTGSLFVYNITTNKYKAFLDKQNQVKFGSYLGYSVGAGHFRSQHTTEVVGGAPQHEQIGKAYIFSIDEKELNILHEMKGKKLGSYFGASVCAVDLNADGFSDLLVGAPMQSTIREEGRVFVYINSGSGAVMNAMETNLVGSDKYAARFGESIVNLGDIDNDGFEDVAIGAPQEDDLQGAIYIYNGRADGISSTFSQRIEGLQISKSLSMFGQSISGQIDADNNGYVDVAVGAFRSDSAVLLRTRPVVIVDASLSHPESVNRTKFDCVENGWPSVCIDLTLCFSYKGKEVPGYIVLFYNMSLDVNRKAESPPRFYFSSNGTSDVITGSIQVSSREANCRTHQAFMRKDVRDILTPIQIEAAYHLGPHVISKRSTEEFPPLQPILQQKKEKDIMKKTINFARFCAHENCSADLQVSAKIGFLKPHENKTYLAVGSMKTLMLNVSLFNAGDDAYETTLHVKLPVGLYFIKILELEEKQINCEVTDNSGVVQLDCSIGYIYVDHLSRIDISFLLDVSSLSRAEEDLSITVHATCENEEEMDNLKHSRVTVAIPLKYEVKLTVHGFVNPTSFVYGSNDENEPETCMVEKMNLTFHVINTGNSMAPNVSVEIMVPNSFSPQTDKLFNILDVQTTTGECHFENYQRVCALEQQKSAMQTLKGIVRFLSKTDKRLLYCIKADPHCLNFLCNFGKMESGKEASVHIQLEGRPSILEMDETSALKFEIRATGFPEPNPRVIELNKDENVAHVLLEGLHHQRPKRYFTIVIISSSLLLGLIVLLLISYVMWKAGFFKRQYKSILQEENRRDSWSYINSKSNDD
runDescription: Inhibition of I-VCAM-Ig binding to Very late antigen 4 (VLA-4)
Type: protein-complex assay
Expect pIC50 as a plain number equal to -log10 of the molar concentration.

Check out these entries, answers already filled in.
[[record]]
compound = "COc1ccccc1-c1ccc(C[C@H](NC(=O)[C@@]2(C)CCCO2)C(=O)O)cc1"
testtarget = "Integrin alpha-4/beta-1 (Homo sapiens, UniProt P05556+P13612)"
quantitykind = "pIC50"
recordedmeasurement = 7.86

[[record]]
compound = "COc1ccccc1-c1ccc(C[C@@H](NC(=O)[C@@]2(C)CCCO2)C(=O)O)cc1"
testtarget = "Integrin alpha-4/beta-1 (Homo sapiens, UniProt P05556+P13612)"
quantitykind = "pIC50"
recordedmeasurement = 8.57

[[record]]
compound = "COc1cccc(OC)c1-c1ccc(C[C@H](NC(=O)[C@@]2(C)CCCO2)C(=O)O)cc1"
testtarget = "Integrin alpha-4/beta-1 (Homo sapiens, UniProt P05556+P13612)"
quantitykind = "pIC50"
recordedmeasurement = 9.52


Let's switch to this compound now.
Field request: pIC50 | item: COc1ccccc1-c1ccc(C[C@H](NC(=O)C2(C)CCCO2)C(=O)O)cc1 (some centres undefined)
8.41

----------
runDescription: Oral bioavailability in rat (Sprague-Dawley) (dose 1 mg/kg i.v.)
Assay type: ADME, organism-based
testContext: in vivo
bioavailability values for the compounds below.
Report only the number, with the unit % understood.

Field request: bioavailability | item: COc1cccc(OC)c1-c1ccc(C[C@H](NC(=O)[C@@]2(C)CCCO2)C(=O)O)cc1
42

Field request: bioavailability | item: COc1ccccc1-c1ccc(C[C@@H](NC(=O)[C@@]2(C)CCCO2)C(=O)O)cc1
57

Field request: bioavailability | item: C[C@]1(C(=O)N[C@@H](Cc2ccc(-n3ccccc3=O)cc2)C(=O)O)CCCO1
27

Field request: bioavailability | item: C[C@]1(C(=O)N[C@@H](Cc2ccc(-c3ccccc3OC3CC3)cc2)C(=O)O)CCCO1
76

----------
runDescription: Oral bioavailability in rat (Sprague-Dawley)
Assay type: ADME, organism-based
testContext: in vivo
bioavailability values for the molecules below.

[[record]]
molecule = "COc1ccccc1-c1ccc(C[C@H](NC(=O)C2(C)CCCS2(=O)=O)C(=O)O)cc1 (some centres not stated)"
recordedmeasurement = "6%"


Let's switch to this molecule now.
Field request: bioavailability | item: COc1ccccc1-c1ccc(C[C@H](NC(=O)C2(C)CCCO2)C(=O)O)cc1 (some centres not stated)
72%
